Data credit: the supplement of paper PMC9170038

Provide the reported apparent KD of K4 kissing-loop reporter of each item.
Test system: K4 kissing-loop RNA reporter;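 also: bound reporter read as fluorescence of individual clusters on recovered sequencing chips by microscopy, with normalized cluster intensities fitted with a binding model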
Assay: apparent KD of K4 kissing-loop reporter; higher = weaker reporter binding
Conditions: Eterna round: R107; input ligand: none
One number for each entry, in nM.

A selection of reference data follows.
| polymerSequence | apparent KD of K4 kissing-loop reporter / nM |
| --- | --- |
| GGCACUUUUGCUUGGAACCGUCAAGCUCGAUAGGAUAUGCCGAAAGGCAGAAGGAUUGACCUACAGAGUGAUGUUCUGCGUGCCU | 830 |
| GAGAUGCACCAGUCUUAACGUGACUUAUCCCGAGGACCGGUACGGCCGCCACUCGCGUACUACUAGUGAUGUUGGUCAGUAUGAG [theeternabot_sameState_KL_Trp_A_26] | 215 |
| ACCACCUGUCUGGAUACCAGUCUUCGAGUGAUGUUGGAAGUUAGCCGGUUCUAUUACCUAGACCCUUGGCAGCCAGGAAUUAUAG [theeternabot_exclusion_KL_Theo_B_17] | 1500 |
| GGAAUAACCUGGGAUACCAGUCGGAGGACUAGGGAUCGGAGUGAUGUUCUGGGAUGUUUCGGCCCUUGGCAGCUCUGGUUUUCCG [#2 Exclusion - Theophylline B Attempt #1 (HarryS)] | 551 |
| UGAUCUGCAGUGAUGUUGCAGUAGCUGUCAGAGGAUAUCAGACUCAUGAGAAGGCUGACAAUGUCUAACAGCACAAUGCUGUUCA [FMN A SS t6] | 166 |

Hi! Can you tell me apparent KD of K4 kissing-loop reporter for each of these sequences?
1. CAUACGCAUGGAGGAUAUGAGAUUACUCAUGUCAUUUAAUAUUCUCAGUGAUGUUGAGAUUUAGGCUCAGAAGGCCAUGUGUAUG [Ex FMN B 17]
2. AGUAGUUGGGCGGCCGCCACUGGAACAGCUUUGUCAAAGACAGAGCACUAGAGUGAUGUUCUAGCUAGGACCGGGUCCAACUACA [whbob_SS_Tryp_B_t17]

Response line:
[630, 533]

====

Tested on: MS2 coat protein
Experiment: apparent KD of MS2 coat protein; higher = weaker reporter binding
Details: Eterna round: R107; input ligand: none
quantityMeasured: apparent KD of MS2 coat protein (nM)
Give bare numbers, in nM.

Here is how some sequences turned out for apparent KD of MS2 coat protein.
| polymerSequence | assayedTarget | resultNumber |
| --- | --- | --- |
| AAACAGUCGGACAUGAGGAUCACCCAUGUGCGAGGACCGGUACGGCCGCCACUCGACAAGGGCGGUCCCGAAGCAAACAUACGCG [Enedquceor] | MS2 coat protein | 16.5 |
| AAGACAUGAGGAUCACCCAUGUGUCAUGAAGGAGCGUCGGAAAUGACAGGUAGGUCGCAUGACCGUUGGCGCCGGAAACGGCGCA [SSAA #15] | MS2 coat protein | 30.5 |

Prompt line: Supply apparent KD of MS2 coat protein value. Item: CAAUCAAUCAAUCAAUCAAUCAACCAUGAAGGAGCGUGGGAAACCACAGGUAGGUCGCAUGGAAAACAUGAGGAUCACCCAUGUA [Casablanca]
Response line: 30.9

====

System: MS2 coat protein
Test: apparent KD of MS2 coat protein, switch OFF state (with FMN for OFF switches, without FMN for ON switches); designed switch direction (-1 OFF switch, 1 ON switch): 1; higher = weaker reporter binding
Conditions: FMN input: 0 or 200 uM; Eterna round: R93 (includes R88 designs)
quantityMeasured: apparent KD of MS2 coat protein (nM)
Answers are plain numbers, in nM.

Answered examples (3):
| polymerSequence | quantityMeasured | measurementUnit | resultNumber |
| --- | --- | --- | --- |
| UAAUAAUAAACCAAGGAUAUGGAGUUUCCAACAUGAGGAUCACCCAUGUUUAGCAUGAAAUCGAUCCAGAAGGUGGAGCCAAAUA [JR_SS002_Sub1005] | apparent KD of MS2 coat protein | nM | 102 |
| AAAAAACAUGAGGAUCACCCAUGUAAAAAAAACGCAGGAUAUCCCUUUUUUAAAUGGGAGGGAGAAGGGUGAAAAA [Nob's Hobby 13 - Jieux - Same State 1] | apparent KD of MS2 coat protein | nM | 43.8 |
| AAAAGACAUGAGGAUCACCCAUGUAAAAACGUAGGAGGAUAUGUCUGGAAAACAUGCUGGACAGAAGGCCUGUGUC [SS1 - 29] | apparent KD of MS2 coat protein | nM | 25.2 |

Each sequence below has a recorded value; state its apparent KD of MS2 coat protein.
1. AACAAUCUAUCUGAGGAUAUGUGUCGAAAGACAUGAGGAUCACCCAUGUAAAAACAUGGAAAGAUACAGAAGGCAGAUAGAUUGA [SS2: 1157]
2. AAAAAACAUGAGGAUCACCCAUGUGCAAAAUUCGCAGGAUAUCCCUUUUUUAAAUGGGAGGGAGAAGGGUGUAAAA [Nob's Hobby 18 - Jieux - Same State 1]

Response line:
107
47.4

====

System: MS2 coat protein
Test: apparent KD of MS2 coat protein; designed switch direction (-1 OFF switch, 1 ON switch): -1; higher = weaker reporter binding
Conditions: input ligand: FMN 200 uM
Exercise: for every item that follows, state its recorded apparent KD of MS2 coat protein.
Answers are plain numbers, in nM.

Here are 9 sequences together with their reported answers.
| polymerSequence | apparent KD of MS2 coat protein [nM] |
| --- | --- |
| GCAUUACAUGAGGAUCACCCAUGUGAGGAUAUUAGGGUCGCAAGCACGUCUAGCAGACUGAGAAGGCACGGGUG [Eternabot (L1) Solution 45] (Eterna round: R97, puzzle: Exclusion 1) | 139 |
| CGGAUGUAAGGAUAUUAGUAGUAGUCAGAAUAGACUAUUACUGAGAAGGUACAUGAGGAUCACCCAUGUUUCCG [Eli x4 4.18] (Eterna round: R97, puzzle: Exclusion 4) | 27.5 |
| UGUCUACAUGAGGAUCACCCAUGUCAGGAUAUGCUCGAUAUAUGGAAACAUAUAUCGAGCAGAAGGGACUAGCG [Jieuxxlusion 5 - Jieux - Exclusion 1] (Eterna round: R97, puzzle: Exclusion 1) | 53.5 |
| GUGAGUAGUCAGGAUAUGCUGUACAAAAGUACAGCAGAAGGGAUUACAUGAGGAUCACCCAUGUUUACUUCGUG [Omei Ex6 B3] (Eterna round: R97, puzzle: Exclusion 6) | 105 |
| AACUCUGAGAAGGAUAUUCAAUGGGAAACGAUAGAAGAAGGUUUCACAUGAGGAUCACCCAUGUCAAAUAGUGA [EX6 #72] (Eterna round: R97, puzzle: Exclusion 6) | 178 |
| GUACUGACAGGAUAUACAUGAGGAUCACCCAUGUGCCUUAAUGCUACAAAAGUAGCAAGUAGAAGGGUCUGUAC [Omei Ex3 Model Bachelor's Dilema v11] (Eterna round: R97, puzzle: Exclusion 3) | 79.7 |
| CAUUGUUAUCGAGGAUAUCGUAUUGAGAUACUACGAGAAGGCGGAAUAAACAUGAGGAUCACCCAUGUGAGACGGAUGCUUGUG [Ex NG1 #34] (Eterna round: R96, puzzle: Exclusion NG 1) | 34.1 |
| UAUUAGCAAGCGAGAUCCCACAUGAGGAUCACCCAUGUGCUCGUGCAUCCAGAAUUACUGGGUGCUGCUCGUCUUAU [Winner reversed engineered 13] (Eterna round: R97, puzzle: Sensor, turn-off variant 1) | 15.2 |
| AAGUCGACGGUGAGGAUAUUGGUUGAACGACAGAUCAAGAAGGCACAUGAGGAUCACCCAUGUGGGUAACGUCG [Brourd's EX4 #38] (Eterna round: R97, puzzle: Brourd's mod of Exclusion 4) | 34.5 |

Could you now consider this next sequence?
Prompt line: Report its apparent KD of MS2 coat protein with MS2 coat protein as the test system: GUUUGCACGCUGCGGUCCUACAUGAGGAUCACCCAUGUGGUCUGGUGGCGUGGGUCGCCGGACUUGGCUCGUCUUGA [salish99_S_TOV1_R5_038] (Eterna round: R97, puzzle: Sensor, turn-off variant 1)
Response line: 17.2

====

System: MS2 coat protein
Experiment: apparent KD of MS2 coat protein; designed switch direction (-1 OFF switch, 1 ON switch): -1; higher = weaker reporter binding
Details: input ligand: FMN 200 uM
quantityMeasured: apparent KD of MS2 coat protein (nM)
One number for each entry, in nM.

Field: example entries. Status: answers known.
| polymerSequence | assayedTarget | apparent KD of MS2 coat protein [nM] |
| --- | --- | --- |
| AUCUUGAUAGGAUAUACAUGAGGAUCACCCAUGUCCCACCCGUUACCUCUGGCCCUAUGUAGAAGGAUCGUCUA [Exy#20] (Eterna round: R97, puzzle: Exclusion 3) | MS2 coat protein | 50.5 |
| UAGCAUUGCCAAAGGUAGUGCUUUACAUGAGGAUCACCCAUGUAGGAUAUGGUAGGCAAAGCUUACCAGAAGGACAUGAUAAUU [Mat - Exclusion NG 3 - Mod of JL - D12] (Eterna round: R96, puzzle: Exclusion NG 3) | MS2 coat protein | 167 |
| CAUUAUGUUGAGGAUAUGCACCAGCUCACUGACGCAGAAGGCGACACAUGAGGAUCACCCAUGUCAGUUCGCGU [salish99_ex6_r004_429] (Eterna round: R97, puzzle: Exclusion 6) | MS2 coat protein | 23.5 |

Read the next record carefully.
Prompt line: Report apparent KD of MS2 coat protein on MS2 coat protein for this entry: AUCAGCUCGUGAGGAUAUACAUGCGUGCUUCGGCACGAAUUUAAGAUCACAUGAGGAUCACCCAUGUAGAAGGUACGAGCUGAU [ENG2/3-C3] (Eterna round: R96, puzzle: Exclusion NG 2)
Response line: 498
